Test system: EpiDerm™ EPI-200-MNA skin tissues
Cond: overall call
Measured Metric: classification in the RSMN assay by Lab C

Past entries and their recorded results:
CCOS(C)(=O)=O [Ethyl methanesulfonate (EMS), Ethyl methanesulfonate]    positive
C1CC2OC2CC1C1CO1 (centres unmarked) [4-Vinyl-1-cyclohexene diepoxide]    positive
CCCCNC(=O)NS(=O)(=O)c1ccc(C)cc1 [Tolbutamide]    negative
[Cl][Cd][Cl] [Cadmium chloride (CdCl2), Cadmium chloride]    positive
CC(=O)Nc1ccc2c(c1)Cc1ccccc1-2    negative

query: Give classification in the RSMN assay by Lab C for CC(=O)O[C@H]1C(=O)[C@@]2(C)[C@H]([C@H](OC(=O)c3ccccc3)[C@]3(O)C[C@H](OC(=O)[C@H](O)[C@@H](NC(=O)c4ccccc4)c4ccccc4)C(C)=C1C3(C)C)[C@]1(OC(C)=O)CO[C@@H]1C[C@@H]2O
result: positive

query: Give classification in the RSMN assay by Lab C for COc1cc2c(c(OC)c1OC)-c1ccc(OC)c(=O)cc1[C@@H](NC(C)=O)CC2
result: positive

query: Give classification in the RSMN assay by Lab C for O=[N+]([O-])c1ccc(O)cc1
result: negative
